I'd appreciate it if you could supply EC50 values for the items below.
- measurement-target: human GPR40 (Homo sapiens (Human), UniProt O14842)
- Sequence (O14842 whole entry): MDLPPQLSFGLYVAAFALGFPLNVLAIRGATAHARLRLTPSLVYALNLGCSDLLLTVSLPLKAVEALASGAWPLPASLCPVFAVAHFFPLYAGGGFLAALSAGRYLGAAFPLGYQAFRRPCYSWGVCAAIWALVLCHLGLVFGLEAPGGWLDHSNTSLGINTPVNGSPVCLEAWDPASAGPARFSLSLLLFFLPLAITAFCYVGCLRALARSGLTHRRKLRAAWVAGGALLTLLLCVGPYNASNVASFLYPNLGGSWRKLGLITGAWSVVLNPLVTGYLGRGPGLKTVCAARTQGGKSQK
- test-description: Inositol Phosphate Turnover (IP1) Assay 1 in HEK cells stably expressing human GPR40
- Format: cell-based
- test-settings: compound transferred via pocket tip
Give bare numbers, in nM.

Worked examples follow.
compound	unit-info	measured-number
COc1ccc(F)c(-c2ccc(C3Cc4ccc([C@@H](CC(=O)O)C5CC5)cc4O3)nc2)c1 (some centres unmarked)	nM	311
COc1c(F)cc(-c2cccc(-c3cc4cc(CCC(=O)O)ccc4o3)c2)c(Cl)c1F	nM	4580

Prompt line: If you can, please state the reported EC50 value of COc1ccc(F)c(-c2ccc(-c3cc4ccc([C@@H](CC(=O)O)C5CC5)cc4o3)nc2)c1 .
Response line: 215
